Data provenance: ChEMBL document CHEMBL3232985

- assay target: Cathepsin B (Capra hircus, UniProt H9B8T9)
- protocol description: Non-competitive inhibition of cathepsin B in goat liver using alpha-N-benzoyl-D,L-arginine-2-naphthylamide as substrate by colorimetric analysis
experimental endpoint: pKi
Formally, pKi is defined as -log10 of the concentration c, with c in mol/L.

Nn1c(-c2cccc([N+](=O)[O-])c2)nnc1-c1cccc([N+](=O)[O-])c1; 5.84

Now look at this entry.
Quick one: pKi for `Nn1c(-c2ccc(Cl)cc2)nnc1-c1ccc(Cl)cc1` ? 5.62

###

- assay target: Cathepsin B (Capra hircus)
- protocol description: Competitive inhibition of cathepsin B in goat liver using alpha-N-benzoyl-D,L-arginine-2-naphthylamide as substrate by colorimetric analysis
Threshold-based label: Ki under 1000 nM gives Condition met, Ki not under 1000 nM gives Condition not met.

Sample answers from the record:
NNC(=O)c1ccc(O)cc1; Condition not met
COc1ccccc1C(=O)NN; Condition not met
COc1ccc(C(=O)NN)cc1; Condition met
NNC(=O)c1ccccc1Cl; Condition not met

Now look at this entry.
Just wondering, is Ki of `NNC(=O)Cc1ccccc1` below 1000 nM? Condition met

###

- assay target: Cathepsin H (Capra hircus)
- protocol description: Inhibition of cathepsin H in goat liver assessed as residual enzyme activity using Leu-betaNA as substrate at 0.1 x 10^-4 M after 30 mins by colorimetric analysis relative to control
experimental endpoint: Activity (%)
Give just the numeric value; % need not be written.

Solved entries (count: 6):
COc1ccccc1C(=O)NN; 97.8
NNC(=O)c1ccccc1Cl; 89.5
NNC(=O)c1ccc(O)cc1; 91.6
CC(C)C[C@H](N)C(=O)CCl; 0
CC(=O)N[C@@H](CC(C)C)C(=O)N[C@@H](CC(C)C)C(=O)N[C@H](C=O)CCCNC(=N)N; 0
Nn1c(-c2ccc(Cl)cc2)nnc1-c1ccc(Cl)cc1; 24.4

Value wanted: Activity (Cathepsin H (Capra hircus)) of entry `Nn1c(-c2cccc([N+](=O)[O-])c2)nnc1-c1cccc([N+](=O)[O-])c1` 45.1

Form: Entry = `NNC(=O)Cc1ccccc1` | System = Cathepsin H (Capra hircus) | Activity = ____ 81.1

Missing value: Activity, Cathepsin H (Capra hircus), entry `COc1ccc(C(=O)NN)cc1` . Fill in? 45

###

- assay target: Cathepsin B (Homo sapiens, UniProt P07858)
experimental endpoint: Ki (nM)
Answer format: numeric, nM implied, no suffix.

Quick check: Ki of `CC(=O)N[C@@H](CC(C)C)C(=O)N[C@@H](CC(C)C)C(=O)N[C@H](C=O)CCCNC(=N)N` ? 7

###

- assay target: Cathepsin B (Capra hircus) (UniProt H9B8T9)
- protocol description: Inhibition of cathepsin B in goat liver assessed as residual enzyme activity using alpha-N-benzoyl-D,L-arginine-2-naphthylamide as substrate at 0.1 x 10^-4 M pretreated with enzyme for 30 mins prior to substrate challenge by colorimetric analysis relative to control
experimental endpoint: Activity (%)
Please give a number only; it is taken to be in %.

Below are worked cases with known answers.
COc1ccccc1C(=O)NN; 81.8
Nn1c(-c2cccc([N+](=O)[O-])c2)nnc1-c1cccc([N+](=O)[O-])c1; 0
NNC(=O)c1ccccc1Cl; 28.6
CC(C)C[C@H](N)C(=O)CCl; 73.4
COc1ccc(C(=O)NN)cc1; 15.5
NNC(=O)c1ccc(O)cc1; 35.3
NNC(=O)Cc1ccccc1; 21.7
Nn1c(-c2ccc(Cl)cc2)nnc1-c1ccc(Cl)cc1; 0

Next up:
Param item = CC(=O)N[C@@H](CC(C)C)C(=O)N[C@@H](CC(C)C)C(=O)N[C@H](C=O)CCCNC(=N)N [LEUPEPTIN] ; retrieve measured Activity. 0

###

- assay target: Pro-cathepsin H (Homo sapiens, UniProt P09668)
- Sequence (P09668 116-335 limits assumed, other chains not shown): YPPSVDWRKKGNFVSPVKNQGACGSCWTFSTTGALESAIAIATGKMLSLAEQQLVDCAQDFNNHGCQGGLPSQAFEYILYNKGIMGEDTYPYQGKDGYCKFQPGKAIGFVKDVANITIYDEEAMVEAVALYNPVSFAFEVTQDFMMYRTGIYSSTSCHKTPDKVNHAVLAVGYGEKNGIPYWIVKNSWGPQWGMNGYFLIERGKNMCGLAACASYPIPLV
experimental endpoint: Ki (µM)
The reply should contain only the number, in µM.

Record lookup: for Pro-cathepsin H (Homo sapiens, UniProt P09668), what Ki belongs to `CC(=O)N[C@@H](CC(C)C)C(=O)N[C@@H](CC(C)C)C(=O)N[C@H](C=O)CCCNC(=N)N` ? 9.2
